EXPERIMENT SUMMARY: viability gain of MRP-1-high H69AR cells under doxorubicin, pilot screen, MRP-1 activator project, CellTiter-Glo, duplicate (AID 807);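 further: compound pretreatment 18-22 h then 72 h combined with doxorubicin; 0% = doxorubicin alone and 100% = vehicle without doxorubicin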
ASSAY CONDITIONS: H69AR viability with doxorubicin, CellTiter-Glo luminescence; at 10 µM; hits give high values
The source made the active and inactive calls.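 How the source made its calls: active means viability increase at or above a cutoff of the median across tested compounds plus 3 SD (cut at about 8.5% in these data, passing the limit was not always enough); inconclusive means some gains above the cutoff, reason not given; inactive means the rest.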
Listed molecules paired with reported viability increase

Example entries and their recorded answers appear below.
• O=C1CC(C(=O)N2CCN(c3ccc(F)cc3)CC2)CN1CCc1ccccc1 (stereo not drawn) = -2.3% (inactive)
• CC(C)CCN(C)C1CCN(C(=O)Nc2c(F)cccc2F)CC1 = -3.34% (inactive)
• COc1ccc2c(c1)CCc1c(C(=O)NCc3ccc(F)cc3)noc1-2 = 1.03% (inactive)
• CCSc1nnc(NC(=O)c2c(-c3ccccc3Cl)noc2C)s1 = -1.87% (inactive)
• COc1cccc(NC(=O)CN2C(=O)COc3ccc(Cl)cc32)c1 = -0.8% (inactive)

Measured viability increase, CCCCCSc1nc2c(c(=O)[nH]c(=O)n2C)n1C : -2.27% (inactive)

viability increase for CCCc1nc2c(o1)CC(CC(C)SCC)CC2=O (stereo not drawn) is -0.4% (inactive)

The recorded viability increase for Cc1cccc(OCC(=O)Nc2ccc3c(c2)OCO3)c1C is -0.26% (inactive)

# viability increase (molecule: Cc1onc(-c2ccccc2Cl)c1C(=O)N1CCCCC1C(=O)O (stereo not drawn) ) is -1.22% (inactive)

# viability increase of O=C1C2CCCN2C(c2cccc(F)c2)N1c1cccc(Cl)c1 (stereo not drawn) = -0.22% (inactive)

----------
EXPERIMENT SUMMARY: growth suppression of PTEN-deleted HCT116, pilot screen, cell-based, HCT116 clonal line, CellTiter-Glo (AID 824);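 further: 0% = 20 µM Hyamine control and 100% = vehicle cell control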
ASSAY CONDITIONS: 60 h, at 10 µM, hits give low values
Inconclusive results are not listed.
MEASURED ENDPOINT: viability (%)
Give your result in % as a bare value.

# example entries with known answers
- CCOC(=O)C1CCN(C(c2cccs2)c2sc3nc(C)nn3c2O)CC1 (configuration not stated): 99.3
- COc1ccc(OC)c2c1CC(C)(C)NC2=O: 96.9
- Cc1[nH]c2ccccc2c1CCC(N)=O: 96.2
- CCOc1cc(C(=O)Nc2nnc(C)s2)cc(OCC)c1OCC: 97.7
- CCOC(=O)N1CCN(C(=O)c2cc3c(-c4ccc(Cl)cc4)nn(C)c3s2)CC1: 49.2

response.value for CC(=O)c1c(N2CCN(c3ccccc3)CC2)nc(=S)n(-c2ccccc2)c1C (field: viability) = 99.9

Measured viability of NC(=O)CSc1ncc(-c2ccccc2)[nH]1 : 93.7

----------
EXPERIMENT SUMMARY: Restrictive medium S. cerevisiae growth inhibition, OD615, pilot screen of yeast lifespan reduction project, restrictive growth control (AID 706);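 further: modified DeaD lifespan yeast strain shifted to restrictive glucose medium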
ASSAY CONDITIONS: OD615, 48 h, at 10 µM, hits give high values
MEASURED ENDPOINT: growth inhibition (%)
The reply should contain only the number, in %.

Known results for compounds:
- COC(=O)c1sccc1NC(=O)c1ccc(Br)o1: 11.3
- CC(Oc1ccc(Cl)cc1Cl)C(=O)NCCCN(C)C (configuration not stated): 4.78
- CCCCC(CC)CNC(=O)c1[nH]c(C)c(C(C)=O)c1C (configuration not stated): -2.26

Please fill in: growth inhibition reported for O=C(COc1ccc(Cl)cc1)OCC(=O)N1CCCC1 = -26.8

Memo: O=C(CCS(=O)(=O)c1cccc2nonc12)NCCc1ccccc1 , reported growth inhibition: -23.2

In plain terms, Cc1ccc(Sc2oc(/C=N/n3cnnc3)cc2Br)cc1 has a documented growth inhibition of 4.41

Recorded growth inhibition (compound CCCN1Cc2cccc(C(=O)N3CCN(c4cc(Cl)ccc4C)CC3)c2C1=O ): -10.8

The measured growth inhibition associated with COc1ccc(S(=O)(=O)N2Cc3ccccc3CC2C(=O)O)cc1OC (configuration not stated) reads 3.09

The reported value for Cn1c(C(=O)Nc2ccc3c(c2)OCCO3)cc2c(=O)n(C)c3ccccc3c21 in terms of growth inhibition is -2.83

growth inhibition recorded for this compound, O=C(COc1ccccc1)Nc1ccc(S(=O)(=O)N2CCCC2)cc1 , is -12.5

get_value(item= O=C(NC1CCCCC1)N1CCCCCC1 , readout=growth inhibition) returns -18

Measured growth inhibition of Cc1cccc2sc(NC(=O)CCNS(=O)(=O)c3cccc4nonc34)nc12 : -6.5

----------
EXPERIMENT SUMMARY: Restrictive medium S. cerevisiae growth inhibition, OD615, pilot screen of yeast lifespan reduction project, restrictive growth control (AID 706);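 further: modified DeaD lifespan yeast strain shifted to restrictive glucose medium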
ASSAY CONDITIONS: OD615, 48 h, at 10 µM, hits give high values
MEASURED ENDPOINT: growth inhibition (%)
Hi! Could you send only the number? It should be in %, unit omitted.

Reference set (3 entries):
* CCOC(=O)C1CCCN(C(=O)c2ccc(CS(=O)(=O)c3ccc(C)cc3)o2)C1 (stereo unspecified) | -6.29
* Cc1occc1C(=O)NC1CCCCCC1 | -9.95
* O=C(NC1CCCCCCC1)c1ccc(CNc2c(N3CCOCC3)c(=O)c2=O)cc1 | 8.42

According to the records, this compound O=C(O)CCCC(=O)NCCCc1ccccc1 displays growth inhibition of 3.99

Quick note, growth inhibition for O=C(NC1CSC/C1=N\O)c1ccccc1 (stereo unspecified) landed at -1.84

Entry COc1ccc(C(=O)N2CCN(c3ccc(C)cc3C)CC2)cc1OC , growth inhibition reported as -0.18

For record CCCCN(CC)CCNc1c(NC2CCN(C(=O)OCC)CC2)c(=O)c1=O the listed growth inhibition is 5.98

Query COc1cccc(C(=O)NC2CC3CCCC(C2)N3CC(=O)Nc2ccc(N(C)C)cc2)c1 (stereo unspecified) yields growth inhibition of -14.7

----------
inhibition overview
EXPERIMENT SUMMARY: inhibitors of the yeast RAM network, pilot screen, dse1pr::URA3 reporter, 5-FOA selection (AID 869);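 further: 0% = DMSO wells with no growth and 100% = 10 µM 1-NA-PP1 with full growth; RAM network block rescues cells from 5-FOA so hits raise OD615 growth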
ASSAY CONDITIONS: S. cerevisiae dse1pr::URA3 5-FOA growth, OD615, 2 d; at 10 µM; hits give high values; strain carries analog-sensitive mutant Cbk1 kinase
Could you give me the number in %? Just the number is fine.

These solved cases illustrate the format of a correct answer.
- CCOc1ccc(/C(=N\O)C(C)NO)cc1 (centres undefined): 0.925
- O=C1C(O)CC2c3ccccc3CC3(CCCC3)N12 (centres undefined): 0.65

Record summary for S=c1nc(-c2ccccc2)n(CCCn2ccnc2)c2c1CCCC2 : reported inhibition = 2.03

For record Cn1nc(-c2ccc(Cl)cc2)c2cc(C(=O)N3CCN(c4ccccc4)CC3)sc21 the listed inhibition is 3.44

Data point: CCCCC(=O)Nc1ncc2c(n1)CC(C)(C)CC2=O ; inhibition = 2.94

inhibition in this record for CCOc1ccc(N(CC(=O)NCc2ccccc2)S(=O)(=O)c2c(C)noc2C)cc1 : 4.04

Kindly note the recorded inhibition for CC1(C)CC2CC(C)(CN2C(=O)c2cc(-c3ccccc3O)on2)C1 (centres undefined) , which is 2.44

Notebook: COC(=O)c1c(NC(=O)CCCC(=O)O)sc(C)c1C , inhibition read as 0.305

----------
EXPERIMENT SUMMARY: growth suppression of PTEN-deleted HCT116, pilot screen, cell-based, HCT116 clonal line, CellTiter-Glo (AID 824);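 further: 0% = 20 µM Hyamine control and 100% = vehicle cell control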
ASSAY CONDITIONS: 60 h, at 10 µM, hits give low values
Records with an inconclusive call do not appear.
Entries and their viability values follow.
Express the result in % but write the number alone.

- CC(=O)/C(C(=N)N1CCN(Cc2ccccc2)CC1)=C(\C)O: 101

Query O=C(Cn1cc2c(n1)CCCC2)NCC1CCCO1 (stereo unspecified) yields viability of 95.9

According to the records, this compound Cc1cc(C)cc(N(CC(=O)N2CCc3ccccc32)S(=O)(=O)c2c(C)noc2C)c1 displays viability of 89.9

Value of viability reported for the compound COc1cc(OC)cc(-c2cc(NC(C)=O)n[nH]2)c1 is 91.3

The recorded viability for entry Nc1nc(NC(=O)c2cccc(S(=O)(=O)N3CCCCCC3)c2)nc(-c2ccccc2)n1 equals 74.4

The compound identified as COc1ccc(C2=NOC(C(=O)N3CCN(c4ccccc4OC)CC3)C2)cc1 (stereo unspecified) registered its viability at 88.5

viability for Cc1cc(Nc2ccc(F)cc2C)n2ncnc2n1 is 101

Noted for O=C(NCCCN1CCCC1=O)c1ccccc1NS(=O)(=O)c1ccc(F)cc1 : its viability reads 94.1

----------
EXPERIMENT SUMMARY: growth suppression of PTEN-deleted HCT116, pilot screen, cell-based, HCT116 clonal line, CellTiter-Glo (AID 824);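 further: 0% = 20 µM Hyamine control and 100% = vehicle cell control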
ASSAY CONDITIONS: 60 h, at 10 µM
Inconclusive results are not listed. Activity calls are given as the source filed them.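 Rule for the calls: active = viability at or below 27.92% in each of two runs, the all-compound median minus 4 SD; inconclusive = no clear call, values can overlap the other calls; inactive = the rest.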
Allowed answers: yes (active), no (inactive)

Completed entries (count: 10):
* Cc1cc(Nc2ccc(Br)c(C)c2)n2nc(C)nc2n1 | no
* COc1ccc(S(=O)(=O)N2CCN(c3c(C)cccc3C)CC2)cc1OC | no
* CC1CCN(S(=O)(=O)N2CCC(C(=O)N3CCC(N(C)CC4CCCO4)CC3)CC2)CC1 (stereo unspecified) | no
* COc1cc(NC(=O)c2cc(C(C)C)on2)cc(OC)c1OC | no
* CC1(C)Oc2ccc3ccc(=O)oc3c2/C(=C/Nc2ccccn2)C1=O | no
* Cn1c(NC(=O)CCC2CCCCC2)cc(=O)n(C)c1=O | no
* Cn1c(Cn2c(=O)sc3ccccc32)nnc1SCC(=O)N1CCN(c2ccccc2)CC1 | no
* CCC(C)NC(=O)c1ccccc1NC(=O)CN1C(=O)c2ccccc2S1(=O)=O (stereo unspecified) | no
* Cc1ccc2oc(Nc3nc(C)cc(C)n3)nc2c1 | no
* O=C(c1cccs1)n1cc(C(=S)N2CCOCC2)c2ccccc21 | no

Returns: the outcome recorded for COC(=O)NCC(c1cccnc1)N1CCN(c2ccccc2F)CC1 (stereo unspecified) in this assay.
no

// param item: CCCn1c(CN2CCCCC2C)nc2c1c(=O)n(C)c(=O)n2C (stereo unspecified) ; yields the recorded call
no

Entry CCC(=O)N/C(=N/c1nc(C)cc(C)n1)Nc1cccc(OC)c1 : call = ?
no
